Cited source for all entries: ChEMBL document CHEMBL4732198

assay: Metabolic stability in Sprague-Dawley rat liver microsomes assessed as half life at 20 uM preincubated for 5 mins followed by NADPH addition and measured after 60 mins by LCMS analysis; type: ADME, Microsome; settings: time 65 min
READOUT_NAME: half-life at 20 µM

SMILES	MEASURED
CC(C)(CNC(=O)c1cccc(-c2noc(C(F)(F)F)n2)c1)c1coc(-c2ccccc2)n1	46 min

====

Molecular target: Protein deacetylase HDAC6 (Homo sapiens)
Sequence (Q9UBN7 whole entry): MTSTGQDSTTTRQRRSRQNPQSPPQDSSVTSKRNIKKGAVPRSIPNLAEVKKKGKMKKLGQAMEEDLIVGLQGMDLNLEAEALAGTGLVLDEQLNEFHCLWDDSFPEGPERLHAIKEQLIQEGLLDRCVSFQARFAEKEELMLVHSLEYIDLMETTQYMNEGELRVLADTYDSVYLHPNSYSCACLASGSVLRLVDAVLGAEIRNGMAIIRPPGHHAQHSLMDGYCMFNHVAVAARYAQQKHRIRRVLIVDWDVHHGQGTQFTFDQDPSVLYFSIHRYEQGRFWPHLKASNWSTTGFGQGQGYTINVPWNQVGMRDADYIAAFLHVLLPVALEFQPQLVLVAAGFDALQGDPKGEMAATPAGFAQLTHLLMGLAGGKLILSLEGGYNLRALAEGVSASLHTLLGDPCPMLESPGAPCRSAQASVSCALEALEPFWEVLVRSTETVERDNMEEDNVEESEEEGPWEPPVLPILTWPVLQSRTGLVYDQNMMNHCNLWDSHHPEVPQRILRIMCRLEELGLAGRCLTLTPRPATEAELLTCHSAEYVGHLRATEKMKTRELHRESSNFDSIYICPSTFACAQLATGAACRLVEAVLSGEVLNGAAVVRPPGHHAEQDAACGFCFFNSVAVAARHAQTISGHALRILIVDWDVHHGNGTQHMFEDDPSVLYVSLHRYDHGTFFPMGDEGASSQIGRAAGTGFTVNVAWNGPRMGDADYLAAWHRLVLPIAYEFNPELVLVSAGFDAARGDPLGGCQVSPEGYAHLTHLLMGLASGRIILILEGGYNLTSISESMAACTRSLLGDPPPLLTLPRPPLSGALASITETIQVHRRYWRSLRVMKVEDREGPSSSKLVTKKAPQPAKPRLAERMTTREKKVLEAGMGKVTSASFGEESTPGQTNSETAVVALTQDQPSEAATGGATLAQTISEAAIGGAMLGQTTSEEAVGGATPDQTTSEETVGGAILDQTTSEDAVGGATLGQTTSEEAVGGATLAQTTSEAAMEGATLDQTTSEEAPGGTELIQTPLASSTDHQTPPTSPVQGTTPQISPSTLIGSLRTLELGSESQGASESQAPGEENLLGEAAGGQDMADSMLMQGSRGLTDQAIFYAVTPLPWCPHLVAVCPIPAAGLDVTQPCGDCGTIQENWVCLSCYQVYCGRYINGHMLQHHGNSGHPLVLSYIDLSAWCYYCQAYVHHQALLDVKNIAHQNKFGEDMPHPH
Experiment: Inhibition of recombinant human HDAC6 using Boc-Lys(Ac)-AMC as substrate pre-incubated for 15 mins followed by substrate addition and measured after 60 mins by fluorescence based assay

SMILES	READOUT_UNITS	IC50
O=C(NO)c1ccc(CN2C(=O)c3ccccc3S2(=O)=O)cc1-c1ccccc1	µM	5.3
O=C(NO)c1ccc(CN2C(=O)c3cccc(F)c3C2=O)cc1-c1ccccc1	µM	4.2
O=C(NO)c1ccc(CN2C(=O)c3ccccc3C2=O)cc1-c1ccccc1	µM	6.4
